Measured mass density accompanies every entry in the list below.
# MEASUREMENT CONTEXT: 323.15 K; 4000 kPa; Liquid

[
  {
    "COMPOUND": "CCCCCCn1cc[n+](C)c1.F[P-](F)(F)(F)(F)F [1-hexyl-3-methylimidazolium hexafluorophosphate]",
    "mass density, kg/m3": 1275
  },
  {
    "COMPOUND": "CCCCCCCC[n+]1ccn(C)c1.F[B-](F)(F)F [1-methyl-3-octylimidazolium tetrafluoroborate]",
    "mass density, kg/m3": 1087.5
  },
  {
    "COMPOUND": "CCCCCCCC[n+]1ccn(C)c1.F[P-](F)(F)(F)(F)F [1-octyl-3-methylimidazolium hexafluorophosphate]",
    "mass density, kg/m3": 1220
  },
  {
    "COMPOUND": "CCCCn1cc[n+](C)c1.O=S(=O)([O-])C(F)(F)F [1-butyl-3-methylimidazolium trifluoromethanesulfonate]",
    "mass density, kg/m3": 1281.3
  },
  {
    "COMPOUND": "CCCCn1cc[n+](C)c1C.F[P-](F)(F)(F)(F)F [1-butyl-2,3-dimethylimidazolium hexafluorophosphate]",
    "mass density, kg/m3": 1333.1
  },
  {
    "COMPOUND": "CCCCn1cc[n+](C)c1.F[B-](F)(F)F [1-butyl-3-methylimidazolium tetrafluoroborate]",
    "mass density, kg/m3": 1185
  }
]

From: the NIST ThermoML archive (doi:10.1021/je060247x)
